Assay: solubility
Assay type: physicochemical
Conditions: aqueous with cosolvent or surfactant or cyclodextrin; 14.7 wt/wt %; read-out: solubility in 14.7 wt/wt % vehicle
measurement_name: solubility

Input: Recorded solubility for COc1ccc2[nH]cc(CCNC(=O)CC3C(=O)N(CCc4ccc(Cl)cc4Cl)CC(=O)N3CCc3cccs3)c2c1 (stereo not shown) , please?
Output: ≥ 797 µM

###

Test system: caspase 3
Assay: CisPt-induced caspase 3 activation in HEI-OC1 cells
Format: cell-based
Details: read-out: 50% inhibitory concentration (IC50) for caspase 3; HEI-OC1 cells pre-incubated with LPT99, then CisPt for 24 hours
measurement_name: IC50 (µM)
Report the figure in µM without appending any unit label.

Input: Recorded IC50 for COc1ccc2[nH]cc(CCNC(=O)CC3C(=O)N(CCc4ccc(Cl)cc4Cl)CC(=O)N3CCc3cccs3)c2c1 (stereo not shown) , please?
Output: 5.2

Sourced from patent US10561736B1
